Biological target: CDK9/cyclin T1 (Homo sapiens) (UniProt O60563+P50750)
Experiment: Inhibition of CDK9/cyclin T (unknown origin) using […] at 1 uM incubated for 40 mins in presence of ATP by Kinase-Glo assay relative to control
Type: protein-complex assay
Quick reference for inhibition among some molecules
outcome.measure: inhibition

In [3]: df
Out[3]:
                                    molecule  recorded_measurement
 0     COc1cc(Nc2nccc(Nc3nccs3)n2)cc(OC)c1OC                   49%
 1  Cc1cnc(Nc2ccc(S(=O)(=O)N3CCOCC3)cc2)nc1Nc1nccs1                    7%
 2  Cc1cnc(Nc2nc(Nc3ccc(S(N)(=O)=O)cc3)ncc2F)s1                   66%
 3  CNS(=O)(=O)c1ccc(Nc2ncc(C)c(Nc3nccs3)n2)cc1                   19%
 4  NS(=O)(=O)c1ccc(Nc2ncc(F)c(Nc3nc(-c4ccc(F)cc4)cs3)n2)cc1                   41%
 5  Cc1cnc(Nc2ccc(S(N)(=O)=O)cc2)nc1Nc1nc(-c2ccc(C(C)C)cc2)cs1                   83%
 6  Cc1cnc(Nc2ccnc(Nc3ccc(S(N)(=O)=O)cc3)n2)s1                   29%
 7  COC(=O)c1sc(Nc2ccnc(Nc3ccc(S(N)(=O)=O)cc3)n2)nc1C                   31%
 8  CCOC(=O)c1sc(Nc2nc(Nc3ccc(S(N)(=O)=O)cc3)ncc2F)nc1C                   69%
 9  CC(C)c1ccc(-c2csc(Nc3nc(Nc4ccc(S(N)(=O)=O)cc4)ncc3F)n2)cc1                   27%
10  Cc1cnc(Nc2ccc(S(N)(=O)=O)cc2)nc1Nc1nccs1                   99%
11  NS(=O)(=O)c1ccc(Nc2nccc(Nc3nc(-c4ccc(F)cc4)cs3)n2)cc1                   65%
12  CC(C)c1ccc(-c2csc(Nc3ccnc(Nc4ccc(S(N)(=O)=O)cc4)n3)n2)cc1                   63%
13  Cc1csc(Nc2ccnc(Nc3ccc(S(N)(=O)=O)cc3)n2)n1                   76%
